test system: Escherichia coli TOP10; experiment: shrunken log2 fold change of peptide-encoding DNA abundance (4.5 h post-induction vs induction); higher = less antimicrobial activity (less host growth inhibition); settings: time post-induction: 4.5 h; library: site-saturation at positions 5, 18, 19, 20;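 note: peptides expressed intracellularly from a pBAD plasmid library in pooled LB shake-flask culture, induced with 0.3% L-arabinose, DNA abundance read by NGS, three biological replicates, DESeq2 with apeglm shrinkage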
# key: entry, value: shrunken log2 fold change
Give the figure only, with no unit attached.

Examples with their reported shrunken log2 fold change follow.
RRIRNRPPRLPRPRPRPIEIPRP | 0.0194
RRIRFRPPRLPRPRPRPQCDPRP | -0.388

Kindly state the measured shrunken log2 fold change obtained for RRIRARPPRLPRPRPRPIHMPRP with Escherichia coli TOP10.
0.0203

RRIRIRPPRLPRPRPRPKAPPRP , same question.
-0.0151

RRIRHRPPRLPRPRPRPRHHPRP , same question.
-0.0639
